# System: P-gp and BCRP
# procedure_text: P-gp and BCRP substrate assessment, bidirectional permeability in C2BBe1 cells
# applied_conditions: human, Caco-2, pH 7.4, probe digoxin (P-gp), cladribine (BCRP), BL-to-AP Papp, C2BBe1 cells, 10 μM probe, batch used with Sol_1, Sol_3, and Sol_4; single replicates
result_type: Papp B→A at 10 µM (×10⁻⁶ cm/s)

1. C[C@H]1O[C@@H](O[C@H]2[C@@H](O)C[C@H](O[C@H]3[C@@H](O)C[C@H](O[C@H]4CC[C@@]5(C)[C@H](CC[C@@H]6[C@@H]5C[C@@H](O)[C@]5(C)[C@@H](C7=CC(=O)OC7)CC[C@]65O)C4)O[C@@H]3C)O[C@@H]2C)C[C@H](O)[C@@H]1O [digoxin] :: 12.1

FYI, the data here is from patent US20230277630A1.
